- assay_overview: In vivo pharmacokinetics in male NMRI mice
- recorded_conditions: mouse, plasma, iv, 0.5 mg/kg i.v., read-out: VSS (volume of distribution)
property: Vd (L/kg)
Quick reminder: number only, in L/kg, skip the unit.

Q: Report Vd for "CC(C)(O)COc1ccc(CN2C(=S)N(c3ccc(C#N)c(C(F)(F)F)c3)C(=O)C2(C)C)cn1"
Result: 0.61

# credit: paper PMC4868737
